Known pIC50 of a selection of compounds
Test system: pTau
experiment: pTau assay
Type: cell-based
# log scale: pIC50 equals minus log10 of the concentration in mol/L

compound	measurement-target	data-value
O=C1Nc2cnc(F)cc2N2CCN(C/C=C\CCC(O)CNc3nccc1n3)CC2 (centres unmarked)	pTau	5.58
O=C1Nc2cnc(F)cc2N2CCN(C/C=C/CC(F)CNc3nccc1n3)CC2 (centres unmarked)	pTau	6.75
O=C1Nc2cnccc2OCC/C=C/CCCNc2nccc1n2	pTau	7.04
O=C1Nc2cnc(F)cc2N2CCN(CCCCCCNc3nccc1n3)CC2	pTau	6.91
O=C1Nc2cnc(F)cc2N2CCN(CC=CCC(O)C3(CC3)Nc3nccc1n3)CC2 (mixture of isomers)	pTau	5.00

Lookup: Give recorded pIC50 with pTau for the following compound: C[C@@H]1Nc2nccc(n2)C(=O)Nc2cnc(F)cc2N2CCN(C/C=C/CC1O)CC2 (single isomer, unassigned)
Found: 6.69

Lookup: Give recorded pIC50 with pTau for the following compound: O=C1Nc2cnccc2OCCCCCCCNc2nccc1n2
Found: 6.58

Lookup: Give recorded pIC50 with pTau for the following compound: O=C1Nc2cnccc2OCCC=CCNc2nccc1n2 (mixture of isomers)
Found: 5.82

Lookup: Give recorded pIC50 with pTau for the following compound: O=C1Nc2cnc(F)cc2N2CCOC(/C=C/CCCNc3nccc1n3)C2 (centres unmarked)
Found: 6.20

Lookup: Give recorded pIC50 with pTau for the following compound: C[C@@H]1Nc2nccc(n2)C(=O)Nc2cnc(F)cc2N2CCN(C/C=C/C[C@@H]1O)CC2
Found: 6.39
